Record form. Attribute: melting point. Fill in for each entry.

Return reported melting point; argument: CCn1c(-c2c(Cl)cccc2Cl)nc(-c2ccncc2)c1-c1ccc(C)cc1 [Example 11]
191 to 193 °C

Return reported melting point; argument: CCC(CC)c1nc(-c2ccncc2)c(-c2ccc(Cl)cc2)n1C [Example 36]
100 to 102 °C

Return reported melting point; argument: CCn1c(-c2ccccc2Br)nc(-c2ccncc2)c1-c1ccc(Cl)cc1 [Example 16]
144 to 147 °C

Return reported melting point; argument: CCn1c(C(O)(C(C)C)C(C)C)nc(-c2ccncc2)c1-c1ccc(Cl)cc1 [Example 41]
221 to 223 °C

Return reported melting point; argument: CCn1c(-c2c(C)cc(C)cc2C)nc(-c2ccncc2)c1-c1ccc(C)cc1 [Example 4]
137 to 140 °C

Return reported melting point; argument: CCn1c(C(O)(c2ccccc2)c2ccccc2)nc(-c2ccncc2)c1-c1ccc(Cl)cc1 [Example 44]
222 to 223 °C

Return reported melting point; argument: CCn1c(-c2c(C)cc(C)cc2C)nc(-c2ccncc2)c1-c1ccc(F)cc1 [Example 10]
194 to 196 °C

Return reported melting point; argument: CCn1c(-c2ccccc2)nc(-c2ccncc2)c1-c1ccc(Cl)cc1 [Example 9]
267 to 270 °C

Return reported melting point; argument: CCn1c(C(c2cccc(F)c2)c2cccc(F)c2)nc(-c2ccncc2)c1-c1ccc(Cl)cc1 [Example 53]
184 to 186 °C

Return reported melting point; argument: CCn1c(C(c2ccccc2)c2ccccc2)nc(-c2ccncc2)c1-c1ccc(Cl)cc1 [Example 39]
199 to 200 °C

Return reported melting point; argument: CCn1c(-c2c(Cl)cccc2Cl)nc(-c2ccncc2)c1-c1ccc(Cl)cc1 [Example 5]
193 to 196 °C

Return reported melting point; argument: CCCn1c(-c2c(Cl)cccc2Cl)nc(-c2ccncc2)c1-c1ccc(C)cc1 [Example 50]
200 to 201 °C

Return reported melting point; argument: CCn1c(C(OCCO)(c2cccc(C(F)(F)F)c2)c2cccc(C(F)(F)F)c2)nc(-c2ccncc2)c1-c1ccc(Cl)cc1 [Example 52]
222 to 223 °C

Return reported melting point; argument: Cn1c(-c2c(Cl)cccc2Cl)nc(-c2ccncc2)c1-c1ccc(Cl)cc1 [Example 3]
257 to 260 °C

Return reported melting point; argument: CCn1c(C(O)(C2CC2)C2CC2)nc(-c2ccncc2)c1-c1ccc(Cl)cc1 [Example 43]
185 to 188 °C

Return reported melting point; argument: CCn1c(-c2cc3ccccc3[nH]2)nc(-c2ccncc2)c1-c1ccc(Cl)cc1 [Example 33]
279 to 280 °C

Return reported melting point; argument: Cc1ccc(-c2c(-c3ccncc3)nc(-c3c(Cl)cccc3Cl)n2C)cc1 [Example 1]
214 to 217 °C

Return reported melting point; argument: CCCC(CCC)c1nc(-c2ccncc2)c(-c2ccc(Cl)cc2)n1CC [Example 37]
152 to 155 °C

Return reported melting point; argument: CCn1c(-c2ccccc2C)nc(-c2ccncc2)c1-c1ccc(Cl)cc1 [Example 8]
173 to 175 °C

Return reported melting point; argument: C=CCn1c(-c2c(C)cc(C)cc2C)nc(-c2ccncc2)c1-c1ccc(C)cc1 [Example 23]
115 to 118 °C

Return reported melting point; argument: C=CCn1c(-c2c(Cl)cccc2Cl)nc(-c2ccncc2)c1-c1ccc(C)cc1 [Example 19]
147 to 149 °C

Return reported melting point; argument: CCn1c(-c2c(C)cc(C)cc2C)nc(-c2ccncc2)c1-c1ccc(Cl)cc1 [Example 12]
226 to 227 °C

Return reported melting point; argument: CCn1c(-c2c(Cl)cccc2Cl)nc(-c2ccnc(OC)c2)c1-c1ccc(Cl)cc1 [Example 55]
138 to 140 °C

Return reported melting point; argument: CCn1c(-c2c(C)cc(C)cc2C)nc(-c2ccncc2)c1-c1ccc(C(C)(C)C)cc1 [Example 7]
202 to 205 °C

Return reported melting point; argument: FC(F)(F)Cn1c(-c2c(Cl)cccc2Cl)nc(-c2ccncc2)c1-c1ccc(Cl)cc1 [Example 25]
213 to 214 °C

Return reported melting point; argument: CCn1c(C(O)(C2CCCCC2)C2CCCCC2)nc(-c2ccncc2)c1-c1ccc(Cl)cc1 [Example 47]
221 to 224 °C

Return reported melting point; argument: CCn1c(-c2c(C)cccc2Cl)nc(-c2ccncc2)c1-c1ccc(Cl)cc1 [Example 17]
188 to 190 °C

Return reported melting point; argument: CCn1c(-c2c(C)cc(C)cc2C)nc(-c2ccncc2)c1-c1ccc(C(F)(F)F)cc1 [Example 13]
227 to 228 °C

Return reported melting point; argument: CCn1c(C(O)(c2cccc(F)c2)c2cccc(F)c2)nc(-c2ccncc2)c1-c1ccc(Cl)cc1 [Example 46]
225 to 227 °C

Return reported melting point; argument: Clc1ccc(-c2c(-c3ccncc3)nc(-c3c(Cl)cccc3Cl)n2C2CC2)cc1 [Example 27]
210 to 211 °C

Return reported melting point; argument: C=CCC(O)(CC=C)c1nc(-c2ccncc2)c(-c2ccc(Cl)cc2)n1CC [Example 42]
159 to 160 °C

Return reported melting point; argument: CCn1c(-c2c(Cl)cccc2Cl)nc(-c2ccnc(Cl)c2)c1-c1ccc(Cl)cc1 [Example 54]
187 to 189 °C

Return reported melting point; argument: CCn1c(C(O)(Cc2ccccc2)Cc2ccccc2)nc(-c2ccncc2)c1-c1ccc(Cl)cc1 [Example 48]
116 to 117 °C

Return reported melting point; argument: C=CCn1c(-c2c(Cl)cccc2Cl)nc(-c2ccncc2)c1-c1ccc(Cl)cc1 [Example 22]
163 to 165 °C

Values from patent US20060173048A1
